Source of measurements: paper PMC12277872

Biological target: hMAO‐B (Homo sapiens, UniProt P27338)
Construct: purchased Sigma Aldrich M7441
Sequence (P27338 1-520): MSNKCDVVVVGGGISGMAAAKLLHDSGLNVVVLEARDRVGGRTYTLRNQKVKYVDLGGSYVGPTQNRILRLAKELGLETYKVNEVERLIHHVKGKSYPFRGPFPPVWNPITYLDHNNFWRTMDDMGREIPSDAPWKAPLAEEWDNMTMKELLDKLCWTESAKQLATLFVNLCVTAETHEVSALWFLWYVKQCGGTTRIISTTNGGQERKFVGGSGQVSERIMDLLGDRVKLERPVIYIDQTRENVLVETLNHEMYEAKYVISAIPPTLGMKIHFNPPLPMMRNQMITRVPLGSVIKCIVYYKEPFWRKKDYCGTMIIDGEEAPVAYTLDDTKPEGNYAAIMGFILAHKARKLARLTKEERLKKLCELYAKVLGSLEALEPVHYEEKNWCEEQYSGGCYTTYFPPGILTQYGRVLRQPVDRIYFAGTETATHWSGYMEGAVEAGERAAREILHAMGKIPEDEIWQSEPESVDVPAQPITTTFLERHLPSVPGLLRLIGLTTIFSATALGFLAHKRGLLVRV
Experiment: In vitro fluorometric MAO-B inhibition assay (tyramine substrate, horseradish peroxidase coupling)
Format: biochemical
# IC50 per entry
Write the value in nM as a bare number.

Use these answered entries as a reference point.
Input smiles | Measured target | Unit abbrev | IC50
CCN(CC)c1ccc(C=NNC(=S)NCCCSC)c(OS(=O)(=O)c2ccc3ccccc3c2)c1 | hMAO‐B (Homo sapiens, UniProt P27338) | nM | 399
CCN(CC)c1ccc(/C=N/NC(=S)Nc2ccc(F)cc2)c(OS(=O)(=O)c2ccc3ccccc3c2)c1 | hMAO‐B (Homo sapiens, UniProt P27338) | nM | 277

Next item in the queue.
Input line: Specify measured IC50 for CCN(CC)c1ccc(/C=N/NC(=S)Nc2ccc(Br)cc2)c(OS(=O)(=O)c2ccc3ccccc3c2)c1 .
Output line: 410
